- Protocol notes: Pharmacokinetics in control rats after gavage of JYPs
- Format: in vivo, Sprague Dawley (SD) rats
- Particulars: male, Sprague Dawley, rat, plasma, oral JYPs, range over compounds and doses, read-out: half-life (t1/2)
Experimental endpoint: half-life

Entry "C[C@H]1O[C@@H](O[C@H]2CC[C@@]3(C)[C@@H](CC[C@]4(C)[C@@H]3C=C[C@]35OC[C@@]6(CCC(C)(C)C[C@H]63)[C@H](O)C[C@]54C)[C@]2(C)CO)[C@H](O)[C@@H](O[C@@H]2O[C@H](CO)[C@@H](O)[C@H](O)[C@H]2O)[C@H]1O" needs its half-life filled in; supply it.
7.52 to 13.7 h

Please supply the value of reported half-life for the item "C=C(C)[C@@H]1CC=C2C(=CC[C@]3(C)[C@@H]([C@@H](CCC=C(C)C)C(=O)O)[C@H](O)C[C@@]23C)[C@@]1(C)CCC(=O)O"
7.61 to 12.2 h

Please list half-life recorded for the molecule CCCC=C1OC(=O)C2=C1CCC1C3C=C4C(=O)OC(=CCCC)C4(CC3)C21 (stereo not drawn) [Levistilide A]
14.4 to 24 h

For the molecule "O=C1C[C@@H](c2ccc(O[C@@H]3O[C@H](CO)[C@@H](O)[C@H](O)[C@H]3O)cc2)Oc2cc(O)ccc21" , give its measured half-life value.
9.53 to 16.8 h

Provide half-life value for the following molecule: "COc1cc(/C=C/C(=O)O)ccc1O"
9.53 to 16.8 h

Identify measured half-life associated with "C=C(CC[C@@H](C(=O)O)[C@H]1[C@H](O)C[C@@]2(C)C3=CC[C@@H](C(=C)C)[C@](C)(CCC(=O)O)C3=CC[C@]12C)C(C)C"
7.61 to 12.2 h

---

- Protocol notes: Pharmacokinetics in control rats after gavage of JYPs
- Assay type: in vivo, Sprague Dawley (SD) rats
- Particulars: male, Sprague-Dawley, rat, plasma, 4.32 g/kg/day, oral JYPs high dose 4.320 g/kg/d (3rd of 3 values), read-out: MRT(0-t)
- Source text: According to the established method for the analysis of serum biological samples, the pharmacokinetics of various components of rat serum were investigated after the administration of different dosages of JYPs to control rats. For the control experiment, healthy male Sprague Dawley (SD) rats of SPF grade ([…] ± 20 g) were purchased from Sipeifu (Beijing) Biotechnology Co., Ltd. (Beijing, China), Animal Quality Certificate No. 110324220102348616. […]
Exercise: for every item that follows, state its recorded MRT last.
Kindly answer with a numeric value in h, unit omitted.

Give a short answer stating reported MRT last for CCCC=C1OC(=O)C2=C1CCC1C3C=C4C(=O)OC(=CCCC)C4(CC3)C21 (stereo not shown) [Levistilide A] .
8.92

Output MRT last of C[C@H]1O[C@@H](O[C@H]2CC[C@@]3(C)[C@@H](CC[C@]4(C)[C@@H]3C=C[C@]35OC[C@@]6(CCC(C)(C)C[C@H]63)[C@H](O)C[C@]54C)[C@]2(C)CO)[C@H](O)[C@@H](O[C@@H]2O[C@H](CO)[C@@H](O)[C@H](O)[C@H]2O)[C@H]1O [Saikosaponin D]
7.1

Please report MRT last for the following molecule: CCC/C=C1\OC(=O)C2=C1CCC=C2 [Z-Ligustilide]
8.76

Tell me its MRT last given C[C@H]1O[C@@H](O[C@H]2CC[C@@]3(C)[C@@H](CC[C@]4(C)[C@@H]3C=C[C@]35OC[C@@]6(CCC(C)(C)C[C@H]63)[C@@H](O)C[C@]54C)[C@]2(C)CO)[C@H](O)[C@@H](O[C@@H]2O[C@H](CO)[C@@H](O)[C@H](O)[C@H]2O)[C@H]1O [Saikosaponin A] as the entry.
6.07
